Sourced from patent US11077100B2

# TEST SYSTEM: human P2X7 (Homo sapiens (Human))
# Sequence (Q99572 whole entry): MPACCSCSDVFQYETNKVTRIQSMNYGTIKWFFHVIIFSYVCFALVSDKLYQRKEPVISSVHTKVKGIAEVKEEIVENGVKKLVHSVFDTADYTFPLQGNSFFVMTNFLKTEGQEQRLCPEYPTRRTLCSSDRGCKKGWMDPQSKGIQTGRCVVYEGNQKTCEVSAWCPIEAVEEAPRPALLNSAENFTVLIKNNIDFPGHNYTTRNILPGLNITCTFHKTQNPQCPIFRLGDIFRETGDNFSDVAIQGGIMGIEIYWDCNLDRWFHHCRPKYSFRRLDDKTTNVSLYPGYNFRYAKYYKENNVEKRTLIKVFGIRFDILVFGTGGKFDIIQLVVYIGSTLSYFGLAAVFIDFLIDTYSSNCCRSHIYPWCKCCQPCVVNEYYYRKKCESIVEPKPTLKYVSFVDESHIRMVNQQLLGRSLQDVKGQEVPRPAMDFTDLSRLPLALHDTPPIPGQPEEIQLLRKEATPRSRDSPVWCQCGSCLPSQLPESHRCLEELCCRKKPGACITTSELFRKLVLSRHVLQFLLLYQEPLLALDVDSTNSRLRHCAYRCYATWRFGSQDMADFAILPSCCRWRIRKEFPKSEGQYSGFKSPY
# PROCEDURE DETAILS: Human P2X7 functional assay (Ca2+ influx, Fluo-4, FDSS)
# EXPERIMENTAL CONDITIONS: antagonistic activity with respect to the human P2X7 receptor; BzATP final concentration 80 microM
Listed here: items and their measured IC50.

{"columns": ["MOLECULE", "TEST SYSTEM", "IC50"],
 "data": [
  ["O=C(NCc1ccc(Cl)cc1C(F)(F)F)[C@@]1(F)CC[C@@H](O)c2ncccc21", "human P2X7 (Homo sapiens (Human))", "101 to 300 nM"]
]}

Pending molecule:
Req: Endpoint output: IC50 of CC1(O)CN(C[C@]2(O)CC[C@@](F)(C(=O)NCc3ccc(F)cc3Cl)c3cccnc32)C1 (relative stereo) . Value?
Resp: < 50 nM

---

# TEST SYSTEM: UniProt:Q64663
# PROCEDURE DETAILS: Rat P2X7 functional assay (Ca2+ influx, Fluo-4, FDSS)
# EXPERIMENTAL CONDITIONS: HEK293 cells stably expressing rat P2X7; BzATP final 10 microM; 7-point dose-response; read-out: Antagonistic activities with respect to the rat P2X7 receptor (IC50)
pIC50: −log10 of the molar value.
Here the recorded pIC50 is given for each entry.

{"columns": ["COMPOUND", "pIC50"],
 "data": [
  ["O=C1CC[C@@](F)(C(=O)NCc2c(F)cc(Cl)cc2Cl)c2cccnc21 [Example 251]", "> 6.00"],
  ["O=C(NC1COc2ccccc2C1)[C@]1(F)CC[C@H](O)c2ncccc21 (some centres unmarked) [Example 233]", "> 6.00"],
  ["Cc1cc(Cl)cc(Cl)c1CNC(=O)C1CCC(O)(CN)c2ncccc21 (centres unmarked) [Example 43]", "> 6.00"],
  ["O=C(NCc1ccc(F)cc1F)[C@]1(F)CC[C@@](O)(CO)c2ncccc21 [Example 318]", "> 6.00"],
  ["O=C(NCc1ccc(F)cc1Cl)[C@]1(F)CC[C@@](O)(CF)c2ncccc21 [Example 286]", "> 6.00"]
]}

Req: Please report the recorded pIC50 for CNCC1(O)CCC(C(=O)NCc2c(C)cc(Cl)cc2Cl)c2cccnc21 (centres unmarked) [Example 44] .
Resp: > 6.00

Req: Same question, C[C@]1(O)CC[C@@](F)(C(=O)NCc2c(F)cc(F)cc2Cl)c2cccnc21 [Example 266] this time
Resp: > 6.00

Req: Thanks! And CN(CCO)C[C@]1(O)CC[C@@](F)(C(=O)NCc2ccc(Cl)cc2Cl)c2cccnc21 [Example 277] ?
Resp: > 6.00

---

# TEST SYSTEM: rat P2X7 (Rattus norvegicus (Rat), UniProt Q64663)
# Sequence (Q64663 whole entry): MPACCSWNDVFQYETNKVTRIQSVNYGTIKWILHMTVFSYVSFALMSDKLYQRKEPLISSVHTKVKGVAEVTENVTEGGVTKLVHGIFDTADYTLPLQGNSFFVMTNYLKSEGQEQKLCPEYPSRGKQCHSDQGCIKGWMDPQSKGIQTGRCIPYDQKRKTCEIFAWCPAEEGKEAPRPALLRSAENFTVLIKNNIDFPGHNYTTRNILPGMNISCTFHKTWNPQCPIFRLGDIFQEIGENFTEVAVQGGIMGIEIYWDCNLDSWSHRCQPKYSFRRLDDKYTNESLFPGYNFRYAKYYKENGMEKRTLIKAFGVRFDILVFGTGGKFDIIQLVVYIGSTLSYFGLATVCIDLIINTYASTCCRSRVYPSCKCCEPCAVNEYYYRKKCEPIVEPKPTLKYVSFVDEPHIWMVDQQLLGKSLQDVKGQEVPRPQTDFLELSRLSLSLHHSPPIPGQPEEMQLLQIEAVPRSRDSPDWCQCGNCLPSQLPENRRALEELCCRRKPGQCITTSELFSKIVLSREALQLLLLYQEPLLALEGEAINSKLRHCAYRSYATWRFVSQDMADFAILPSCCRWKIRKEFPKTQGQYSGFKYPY
# PROCEDURE DETAILS: Rat P2X7 functional assay (Ca2+ influx, Fluo-4, FDSS)
# EXPERIMENTAL CONDITIONS: HEK293 cells stably expressing rat P2X7; BzATP final 10 microM; 7-point dose-response; read-out: Antagonistic activities with respect to the rat P2X7 receptor (IC50)
VALUE KIND: IC50

These recorded examples may help you get a feel for the data.
{"columns": ["COMPOUND", "ASSAY VALUE"],
 "data": [
  ["O=C(NCc1ccc(Cl)cc1C(F)(F)F)[C@]1(F)CC[C@H](O)c2ncccc21", "< 1000 nM"],
  ["O=C(NCc1c(F)cc(F)cc1F)[C@]1(F)CC[C@H](O)c2ncccc21", "< 1000 nM"],
  ["O=C(NCc1ccc(Cl)cc1Cl)[C@@]1(F)CC[C@](O)(CO)c2ncccc21", "< 1000 nM"],
  ["C[C@]1(O)CC[C@@](F)(C(=O)NCc2ccc(Cl)cc2F)c2cccnc21", "< 1000 nM"],
  ["CC1(O)CN(C[C@]2(O)CC[C@@](F)(C(=O)NCc3ccc(F)cc3Cl)c3cccnc32)C1 (relative stereo)", "< 1000 nM"]
]}

Req: Name the recorded IC50 for O=C(NCc1c(Cl)cc(Cl)cc1CO)[C@@]1(F)CC[C@@H](O)c2ncccc21 .
Resp: < 1000 nM

Req: Another compound to look at: O=C(NCc1ccc(F)cc1Cl)[C@]1(F)CC[C@@](O)(CSCCO)c2ncccc21
Resp: < 1000 nM

Req: Next: CSC[C@]1(O)CC[C@@](F)(C(=O)NCc2ccc(F)cc2Cl)c2cccnc21
Resp: < 1000 nM
